B1: library; a variant is named by its letters at N, in order (parent)
chain: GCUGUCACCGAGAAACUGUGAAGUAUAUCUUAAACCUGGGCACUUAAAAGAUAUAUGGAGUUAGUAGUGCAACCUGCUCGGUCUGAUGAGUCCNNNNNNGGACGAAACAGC

# Variants of: B1
# Assay Info: normalized RNA/DNA level without ligand (relative to sTRSVctl = 100) (log10 (% of sTRSVctl)); HEK293T; ligand: cyclic di-GMP (c-di-GMP-II aptamer); higher = less ribozyme self-cleavage, higher mRNA level
# Particulars: reporter: mCherry (pCS4076), ligand present: no
Measurement Kind: normalized RNA/DNA level without ligand (log10)

Input: Please give the measured normalized RNA/DNA level without ligand (log10) for this variant: GCUGUCACCGAGAAACUGUGAAGUAUAUCUUAAACCUGGGCACUUAAAAGAUAUAUGGAGUUAGUAGUGCAACCUGCUCGGUCUGAUGAGUCCCCAUUCGGACGAAACAGC [CCAUUC]
Output: 1.59

Input: Do the same for GCUGUCACCGAGAAACUGUGAAGUAUAUCUUAAACCUGGGCACUUAAAAGAUAUAUGGAGUUAGUAGUGCAACCUGCUCGGUCUGAUGAGUCCUGUGAGGGACGAAACAGC [UGUGAG] please
Output: 1.7

Input: Do the same for GCUGUCACCGAGAAACUGUGAAGUAUAUCUUAAACCUGGGCACUUAAAAGAUAUAUGGAGUUAGUAGUGCAACCUGCUCGGUCUGAUGAGUCCUUUUGGGGACGAAACAGC [UUUUGG] please
Output: 1.82
